Tested on: NCI/ADR-RES ovarian
measurement_description: NCI tumour cell line growth inhibition, 48 h
metric: TGI

smiles_representation: COc1cc(/C=C2\N=C(c3ccccc3)N(c3nc4cc(C)c(C)cc4s3)C2=O)cc(OC)c1OC
target_or_system: NCI/ADR-RES ovarian
TGI: > 100 µM
--
smiles_representation: COc1ccc(N2CCN(CN3CCN(c4ccc(OC)cc4)C3)C2)cc1
target_or_system: NCI/ADR-RES ovarian
TGI: > 100 µM

Consider the additional compound presented here.
INPUT: Please give measured TGI of the following entry: CC1(C)C(=O)N(O)C(C)(C)N1N=O
OUTPUT: > 10 µM

----------
Test system: KM12 colon
measurement_description: NCI tumour cell line growth inhibition, 48 h
Listed below: TGI values for each entry.

smiles_representation: O=[N+]([O-])c1ccc(/C=N\Nc2ccc([N+](=O)[O-])cn2)cc1
result: > 100 µM

smiles_representation: C=CCOc1ccc(C2(c3ccc(OCC=C)cc3)C(=O)Nc3ccccc32)cc1
result: > 10 µM

smiles_representation: N#C/C(=C\c1ccc(F)cc1)c1nc2ccccc2c(=O)[nH]1
result: > 100 µM

Lab note: next molecule to report on.
INPUT: Using known records, supply TGI for CCOc1ncn(-c2ccc(NC(=S)Nc3cnccn3)cc2)n1
OUTPUT: > 10 µM

----------
Tested on: SNB-75 CNS
measurement_description: NCI tumour cell line growth inhibition, 48 h
Here the recorded TGI is given for each entry.

Some solved entries appear below for comparison.
compound: CCOC(=O)CCSS(=O)(=O)C(F)(F)F
target_or_system: SNB-75 CNS
TGI: > 100 µM

compound: Cc1ccc(S(=O)(=O)NC(=O)NC(C(=O)O)C(C)O)cc1 (centres undefined)
target_or_system: SNB-75 CNS
TGI: > 100 µM

compound: COc1ccc2c(c1)C(=O)c1c-2c(OCCN(C)C)nc2cc(OC)ccc12
target_or_system: SNB-75 CNS
TGI: 9.02 µM

compound: COc1cc(C(C#N)NNC(=O)Cc2ccccc2)cc(OC)c1OC (centres undefined)
target_or_system: SNB-75 CNS
TGI: > 100 µM

compound: Cc1cccc(Cl)c1NC(N)=S
target_or_system: SNB-75 CNS
TGI: > 100 µM

compound: COc1cc(/C=C2\CCCC3C2=Nc2ccccc2NC3c2cc(OC)c(OC)c(OC)c2)cc(OC)c1OC (centres undefined)
target_or_system: SNB-75 CNS
TGI: > 100 µM

compound: C=C1C(=O)CCC1C(=O)O (centres undefined)
target_or_system: SNB-75 CNS
TGI: > 100 µM

compound: CN(CCCCN1CCCC1)CCCCN(C)C(=O)Cc1ccc(Cl)c(Cl)c1
target_or_system: SNB-75 CNS
TGI: 32.8 µM

INPUT: Supply reported TGI belonging to this compound: CC(OC1CC(=O)CC2C(=O)C=CC(=O)C12)c1ccccc1 (centres undefined)
OUTPUT: > 57.7 µM

----------
Test system: M14 melanoma
measurement_description: NCI tumour cell line growth inhibition, 48 h
metric: TGI

molecule: COc1cc(CNc2nc3ccccc3n2Cc2ccccc2)cc(CN2CCOCC2)c1O
TGI: 40.4 µM
//
molecule: O=C(c1ccco1)c1ccccc1C(=O)c1ccco1
TGI: > 100 µM
//
molecule: CC(N)(Cc1c[nH]c2ccccc12)C(=O)O (stereo not given)
TGI: > 2500 µM
//
molecule: CC(=O)/C(N=Nc1ccc(-n2c(C)nc3ccc(Br)cc3c2=O)cc1)=C(/C)O
TGI: > 100 µM

INPUT: Supply TGI value. Item: COc1ccc2c(c1)CC[C@@H]1[C@@H]2CC[C@]2(C)c3[nH]ncc3C[C@@H]12
OUTPUT: > 50 µM

INPUT: Check the records and state TGI for O=c1c2cc(Br)ccc2nc(-c2ccccc2)n1NCC1(O)OCC(O)C(O)C1O (stereo not given)
OUTPUT: > 100 µM

INPUT: Identify measured TGI associated with N#C/C(=C\c1ccc(F)cc1)c1nc2ccccc2c(=O)[nH]1
OUTPUT: > 100 µM

INPUT: Report TGI, nothing else, for this molecule: O=C(C[C@@]1(O)C(=O)Nc2c(Cl)ccc(Cl)c21)c1ccc(C2CC2)cc1
OUTPUT: 13.8 µM

INPUT: Provide one value: measured TGI of CCOC(=O)c1c(C)noc1/N=N/N(CCO)CCO
OUTPUT: > 100 µM

INPUT: For the molecule CN(C)CCn1c(=O)oc2cc(C(=O)CN3CCOCC3)ccc21 , give its measured TGI value.
OUTPUT: > 100 µM
